# Test system: Glioma SNB19V (MGMT−)
# measurement-description: MTT assay for 7-day toxicity assay
# Assay type: cell-based
# recorded-conditions: Glioma SNB19V (MGMT−); 7-day MTT; single determinations; read-out: GI50
Lab note - cut at 70 µM for GI50: condition met if strictly below, condition not met if not.

{"input-smiles": "Cc1noc(Cn2nnc3c(C(N)=O)ncn3c2=O)n1", "cat": "condition not met"}
{"input-smiles": "NC(=O)c1ncn2c(=O)n(Cc3c[nH]nn3)nnc12", "cat": "condition not met"}
{"input-smiles": "NC(=O)CCn1nnc2c(C(N)=O)ncn2c1=O", "cat": "condition not met"}
{"input-smiles": "CC[C@@H](c1ccccc1)n1nnc2c(C(N)=O)ncn2c1=O", "cat": "condition met"}
{"input-smiles": "CN(C)C(=O)Cn1nnc2c(C(N)=O)ncn2c1=O", "cat": "condition met"}

Please find the next compound below.
Lookup: Is 70 µM strictly greater than the compound's reported GI50? compound: "NC(=O)c1ncn2c(=O)n(CC(=O)N3CCOCC3)nnc12"
Found: condition met

Sourced from patent US8450479B2
